Listing of entries alongside the reported activation.
Target: Aryl hydrocarbon receptor (Homo sapiens)
Assay: AHR activators, primary screen, cell-based, luminescence, luciferase reporter, human (AID 2796);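 note: 0% = vehicle wells and 100% = reference agonist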
Details: AHR-responsive luciferase reporter cells, at 5 µM, active compounds read high
Out of some 320,000 compounds screened, about 8,000 (2.5%) were called active. The list comes from a sample in which actives are over-represented; it also holds close analogues and randomly drawn compounds.
Give your result in % as a bare value.

{"compound": "CC(=O)N1CC(C)c2scc(C)[n+]2-c2ccccc21 (stereo unspecified)", "experimental_system": "Aryl hydrocarbon receptor (Homo sapiens)", "units": "%", "reading": -2.51}

Data request, read-out activation, for Cc1noc(C)c1CSCC(=O)Nc1ccc(Br)cc1Cl
-1.92

###

Molecular target: Aryl hydrocarbon receptor (Homo sapiens) (UniProt P35869)
Sequence (P35869 whole entry, looked up): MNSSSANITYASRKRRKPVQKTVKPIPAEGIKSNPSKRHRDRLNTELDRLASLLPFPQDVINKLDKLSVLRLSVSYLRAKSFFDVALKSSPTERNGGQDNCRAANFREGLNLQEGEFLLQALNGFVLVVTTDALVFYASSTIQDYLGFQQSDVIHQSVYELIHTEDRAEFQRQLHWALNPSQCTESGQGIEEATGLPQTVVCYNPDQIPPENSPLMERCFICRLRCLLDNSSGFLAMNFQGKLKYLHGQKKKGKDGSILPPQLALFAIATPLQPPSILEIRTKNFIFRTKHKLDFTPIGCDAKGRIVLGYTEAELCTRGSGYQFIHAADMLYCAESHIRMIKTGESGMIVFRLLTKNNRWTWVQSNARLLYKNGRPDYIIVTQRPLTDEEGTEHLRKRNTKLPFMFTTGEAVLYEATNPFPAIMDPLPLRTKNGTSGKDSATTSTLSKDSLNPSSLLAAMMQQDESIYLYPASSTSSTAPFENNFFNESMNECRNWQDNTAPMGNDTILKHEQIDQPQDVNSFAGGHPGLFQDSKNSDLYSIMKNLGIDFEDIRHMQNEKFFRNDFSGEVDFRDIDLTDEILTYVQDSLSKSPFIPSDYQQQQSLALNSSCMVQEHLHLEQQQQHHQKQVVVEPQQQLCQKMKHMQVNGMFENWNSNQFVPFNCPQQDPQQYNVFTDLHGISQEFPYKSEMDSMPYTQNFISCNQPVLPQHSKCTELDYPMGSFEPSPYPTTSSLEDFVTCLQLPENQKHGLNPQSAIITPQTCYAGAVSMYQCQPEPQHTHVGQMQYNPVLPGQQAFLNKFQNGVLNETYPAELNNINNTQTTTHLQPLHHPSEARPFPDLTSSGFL
Test: AHR activators, primary screen, cell-based, luminescence, luciferase reporter, human (AID 2796);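 note: 0% = vehicle wells and 100% = reference agonist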
Conditions: AHR-responsive luciferase reporter cells, at 5 µM
Hit rate of the full screen: of about 320,000 compounds, about 8,000 (2.5%) were called active. Rule as the data show it: active = activation above about 47%; inactive = the rest. Only a selection was taken, and actives are over-represented in it overall.
Select the correct class. Options are yes (1) for active, no (0) for inactive and nothing else.

Below are worked cases with known answers.
{"compound": "O=C(CCc1ccc(S(=O)(=O)N2CCOCC2)cc1)OCC(=O)c1ccc(Br)cc1", "assigned_category": "no (0)"}
{"compound": "Cc1cc(N/N=C\\c2ccc(Br)cc2)nc(-n2nc(C)cc2C)n1", "assigned_category": "no (0)"}
{"compound": "O=C1CCc2cc(S(=O)(=O)Nc3ccc(C(F)(F)F)cc3)cc3c2N1CC3", "assigned_category": "no (0)"}
{"compound": "CSc1nc(C)nc2c1c(=O)n(C)c(=O)n2C", "assigned_category": "no (0)"}
{"compound": "C=CCn1c(C)cc(C2=NNC(=NCC)SC2)c1C", "assigned_category": "no (0)"}
{"compound": "COc1ccccc1-c1nnc(SCC(=O)N2CC(C)CC(C)C2)o1 (stereo unspecified)", "assigned_category": "no (0)"}

Would you mind telling me which call this test gave CCC(C)Sc1nc(C)nc2c1c(=O)n(C)c(=O)n2C (stereo unspecified) ?
yes (1)

Would you mind telling me which call this test gave CCOc1ccc(CN2CCN(Cc3ccon3)CC2CCO)cc1 (stereo unspecified) ?
no (0)

Would you mind telling me which call this test gave O=C(Nc1ccc(OC(F)(F)F)cc1)c1ccc2c(c1)no[n+]2[O-] ?
yes (1)

Would you mind telling me which call this test gave CC(=O)N[C@@H](C)C(=O)N1CCC(n2nccc2NC(=O)CCCc2ccccc2)CC1 ?
no (0)

Would you mind telling me which call this test gave CCCNC(=O)c1cnc(-c2ccccc2)nc1-c1ccccc1 ?
no (0)

###

Target: Aryl hydrocarbon receptor (Homo sapiens) (UniProt P35869)
Assay: AHR activators, primary screen, cell-based, luminescence, luciferase reporter, human (AID 2796);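 note: 0% = vehicle wells and 100% = reference agonist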
Settings: AHR-responsive luciferase reporter cells, at 5 µM, active compounds read high
The whole screen tested about 320,000 compounds, of which about 8,000 (2.5%) were called active. The sample as a whole holds a higher share of actives than the screen did.
Output Fulfilled for activation not less than 10%; output Not fulfilled otherwise.

Below are worked cases with known answers.
{"compound": "CC(Sc1nncn1C)C(=O)NCCC1=CCCCC1 (centres undefined)", "assigned_category": "Not fulfilled"}
{"compound": "N#Cc1ccccc1NC(=O)c1cccc(COc2ccc(Cl)cc2Cl)c1", "assigned_category": "Not fulfilled"}
{"compound": "O=C(NNC(=S)NC(=O)c1cn(-c2ccccc2)nc1-c1ccccc1)c1ccncc1", "assigned_category": "Fulfilled"}
{"compound": "O=C(O)c1cc(S(=O)(=O)NC2CCCc3ccccc32)ccc1O (centres undefined)", "assigned_category": "Not fulfilled"}
{"compound": "CCCCc1ccc(NC(=O)NCc2cccnc2)cc1", "assigned_category": "Not fulfilled"}

Check if activation >= 10% (inclusive). Item: O=C(Nc1cccc(Cl)c1)C1CCCN(c2cnccn2)C1 (centres undefined)
Fulfilled

Check if activation >= 10% (inclusive). Item: O=C(Nc1ccc2c(c1)OCCO2)C1CCCN(c2ncccn2)C1 (centres undefined)
Fulfilled

Check if activation >= 10% (inclusive). Item: Cc1ccc2nc(C)cc(N/N=C/c3ccc(F)cc3)c2c1
Fulfilled

Check if activation >= 10% (inclusive). Item: C=CCNC(=S)N1CCc2[nH]c3ccccc3c2C1
Fulfilled

Check if activation >= 10% (inclusive). Item: O=C(Nc1cccc2cccnc12)c1cccc(N2C(=O)CCC2=O)c1
Not fulfilled
